test: yeast display, Sf9 membrane polyspecificity reagent, FACS + sequencing; frameworks hold sequencing errors
MEASURED METRIC: polyreactivity (PSR sort gate)

Here is how some sequences turned out for polyreactivity (PSR sort gate).
PRIMARY SEQUENCE	polyreactivity (PSR sort gate)
QVQLVESGGGLVQAGGSLRLSCDASGSTIKYYAMGWYRQAPGTEMELVARITSDCGSTFYADSVKGRFTISRDNAKNTVYLLMNRLKPEDTAVYYCNTDYAFRHCWFYPMDYWGQGTQVTVSS	high polyreactivity
QVQLVESGGGLVQAGGSLRLSCAASGSTFVGNVMGWYRQAPGKERELVATISRSGGRTYYADSVKGRFTISRDNAKNTVYLQMNSLKPVDTAVYYCAAGFVYTTASRWGGRTRYDYWGQGTQVTVSS	high polyreactivity
QVHLVESGGGFVQAGGSLGLSCAASGLTFSGNTMGCYTPAPGKERELVAAISSDGSTNYADSVKGRFTLSRDNAKYSVYLQMNSLKPEDTAVYYCNARVRYYFAFWRDYWGQGTQVTVSS	low polyreactivity
QVQLVESGGGLVQAGGSLRLSCAASGIILYPYAMGWYRQAPGKERELVAAISWSGGSTYYADSVKGRFTISRDNAKNTVYLQMNSLKPEDTAVYYCNARYYGPSWNSYDYWGQGTQVTVSS	high polyreactivity
QVQLVESGGGLVQAGGSLRLSCAASGRIFIWYAMGWYRQAPGKDRELVAAISTDGSPYYADSVKGRFTISRDNAKNTVYLQMNSLKPEDTAVYYCAAVPGYTHLWGGPFDYWGQGTQVTVSS	low polyreactivity
QVQLVESGGGLVQAGGSLSLSCAASGYIFRYYAMGSYRQAPGKEREFGAAISWRGGSTYYADSVKGRFTISRDNAKNTVYLQMNRLKPEDTEFYYCAAGYFSFFGHYNAGLDYWGQGTQVTVSS	high polyreactivity
QVQLVESGGGLVQAGGSLRLSCAASGSTFVYYAMGWYIQAPGKEREFVAGISRSGGSTYYADSVKGRFTISRDNAMNTVYLQMNSLKPEDTAVYSCNASGGLPKYGYWGQGTQVTVSS	high polyreactivity
QVQLVESGGGLVQAGGSLRLSCDASGSTFYWYAMGWYRQAPGKERELVAAITYSSGRTYYADSVKGRFTISRDNAKNTVYLQMNSLKPEDTAVYYCGWSALNGYDYWGQGTQVTVSS	high polyreactivity
QVQLVESGGGLVQAGGSLRLSCAASGHSFFYYTMGWYRQAPGKERELVAGITIGGSTNYADSVKGRFTISRDNAKNTVYLQMNSLKPEETAVYYCKKRYVVSRKYDYWGQGTQVTVSS	low polyreactivity
QVQLVESGGGLVQAGGSLRLSCAASGSIFKYYTMGWYRQAPGKDRELVAAISSGGSTTYADSVKGRFTISRDNAKNSVYLQMNSLKPEDTAVYCCAAGYGYPTFVERDYWGHGTQVTVSS	high polyreactivity

Turning to the following sequence.
Ask: Need polyreactivity (PSR sort gate), item QVHLQESGGGLMQAGGSQRLSSAASGSISYYSDMGWYRQAPGKEREFVAGIGYGTTTNYADSVKGRFTTSRDNGKNTVYLQMSSMKPEDTAVYYCAAYQGNGYEFYYWGQGTQVTVRS
Reply: low polyreactivity

====

assay: yeast display, Sf9 membrane polyspecificity reagent, FACS + sequencing; frameworks hold sequencing errors
MEASURED METRIC: polyreactivity (PSR sort gate)

Examples with answers:
PRIMARY SEQUENCE	polyreactivity (PSR sort gate)
QGQLVESGGGLVQAGGSLRLSCAASGSTFLTNTMGWYRHAPGKERELVAAITLRGGRTYYADSVKGRFTISRDNAKNTVYVQMNSLKPEDTAVYYCTARNYYYTSDRDYWGQGTQVTVSS	low polyreactivity
QVPLVESGGGLVQAGGSLRLMCAASGRIFALYAMGWYRQAPGKERELVAAISWSAGRTYYADSVKGRFTISRDNAKNTVYLQMNSLKPEDTAVYYCAADTGRQYDYWGQGTQVTVSS	high polyreactivity
QVQLVESGGGLVQAGGSLRLSCAASGSIFSFYAMGWYRQAPGKERELVADITWSGGRTYYADSVKGRFTISRDNAKNTVYLQMNSLKPEDTAVYYCNTELYLSRYKYVWSFDYWGQGTQVTVSS	low polyreactivity
QVQLVESGGGLVQAGGSLRLSCAASGSTFPTYAMGWYRQAPGKERELVAAITRGGRTYYADSVKGRFTISRDNAKNTVYLQMNSLKPEDTAVYYCAAVYYGAAQYNYWGQGTQVTVSS	high polyreactivity

Read the next record carefully.
Ask: // returns reported polyreactivity (PSR sort gate) for input QVQLVESGGGLVQAGGSLRLSCAASGRTFLVNAMGWYRQAPGKEREFVAAITSRSSGSTYYADSVTGRFTISRDKAKNTVYFQLNSQKPEDTAVYYCAARGHLRYESDYWGQGTQVTVSS
Reply: high polyreactivity

====

test: yeast display, Sf9 membrane polyspecificity reagent, FACS + sequencing; frameworks hold sequencing errors
MEASURED METRIC: polyreactivity (PSR sort gate)

Please review the following examples before continuing.
PRIMARY SEQUENCE	polyreactivity (PSR sort gate)
QVQLVESGGGLVQAGGSLRLTCAASVFTWSYAMVWDRHATGKERELVATISDGVSTNYSDSVKGRFTISRDNAKNSVYLQMNSLKPEDTAVYYCAVRVSGPRGYDYEYWGQGTQVTVSS	low polyreactivity
QVQLVESGGGLVQAGGSLRLSCAASGRTFLWYAMGWYRQAPGKEREFVAAITKSSGSTYYADSVKGRFTISRDNAKNTVFLQMNSLKPEDNAVYYCAKRPFSTRYDYWGQVTQVTVSS	high polyreactivity
QVQLVESGGGLVQAGGSLRLSCAASGRTFYSYAMGWYRQAPGKEREFVAAINWSGTSTYADSVKGRFTISRDNAKNTVYLQMNSLKPEDTAVSYCAKTYRTLVRYWGQPFGYWGQGTQVTVSS	high polyreactivity
QVQLVESGGGLVQAGGILRLSCAASGRIFYVNAMGWYRQAPGKERELVATIRRGGDTNYADSVKGRFTISRDNAKNTVYLQMNSLNPEDTAVYYCAAKAYQSSYQRYYWGQGTQVTVSS	high polyreactivity
QVQIVESGGGLFQAGGSLRLICAASGRIFGNYSMGSSRQEPGKEREFVAAIDWSGGTTYYADSVKGPFTISRDNAKNTVYLQMNSLKPEDTEVYYCAAKYVYSVGNYRYDYWGQGTEVTVSS	low polyreactivity

Ask: What value of polyreactivity (PSR sort gate) has been recorded for this entry: PVQLVESGGGLVQAGGSLRLSCAASGFTFANYAMGWYRQAPGKERELVAAISRGGTSTYYADSVKGRFTISRDNAKNTVYFQMNSLKPEDTEVYFCNAVKVGYSLYDYWGQGTQVTVSS
Reply: high polyreactivity

Ask: Need polyreactivity (PSR sort gate) of QVQLVESGGGLVQAGGSLRFSCAASGTFVPYAMGWYRQAPGKEMELVARITWRGGSTYYADSVKGRFTISRDNAKNTVYLQMNSLKPEDTAVYYCATVSDNRYYYWGQGSQVTVSS , thanks.
Reply: low polyreactivity

Ask: Would you mind telling me what polyreactivity (PSR sort gate) value was observed for QVQLVESGGGLVQAGGSLRLSCAASGAIFRGYAMGWYRQAPGKERELVATITRRCGSTYYADSVKGRFTISRDNAKNTVYLQMNSLKPEDTAVYYCNARLTFLSSWLGKLQWGYDYWGQGTQVTVSS ?
Reply: low polyreactivity

Ask: Quick one: polyreactivity (PSR sort gate) of QVQHVESGGGLVQAGGSLRLSCAASGNIFDRNAMGWDRQARGKERELVAAISRSGGRTYYADSVKGRFTISRDHAKNTVYLQMNSLKPEDTAVYYCNRRYRKYSSAKYDYWGQGTQVTVSS ?
Reply: high polyreactivity

Ask: Looking for the measured polyreactivity (PSR sort gate) of QVQLQESGGGLVQAGGSLRLSCAQSGTICGWDRMGRYRQAPGKERELVATIDNRGSTNYADSVKGRFTISRDNANNTVYPQKISLKPDDTAVDYCAVVGPTPQYHLYWGQGTQVTVCS , can you help?
Reply: high polyreactivity

Ask: Look up polyreactivity (PSR sort gate): QVQLVESGGGLVQAGGSLRLSCAASGIIFTYYAMGWYRQAPGKEREIVAAISWSGGNTYYADSVKGRFTISRDHAKNTVYLQMNSLKPEDTAVYYCARVQYWFYKPMYYWGQGTQVTVSS
Reply: high polyreactivity

====

test: yeast display, Sf9 membrane polyspecificity reagent, FACS + sequencing; frameworks hold sequencing errors
MEASURED METRIC: polyreactivity (PSR sort gate)

Use these answered entries as a reference point.
PRIMARY SEQUENCE	OBSERVED MEASUREMENT
QVQLVESGGGLVQAGGSLRLSCAASGLTFYVYAMGWYRQAPGKERELVAAISSGGRTYYADSVKGRFTISRDNAKNTVYLQMTSLKPEDTAVYYCAAVRHRNYGYWGQGTQVTVSS	high polyreactivity
QVQLVESGGGLVQAGGSLRLSCAASGSILVAYAMGWYRQAPGKERELVAAISSVGNTYYADSVKGRFTISRDNAKNTVYLQMNSLIPEDTAVYYCNAVYRVWYAEWSTVGSPHDYWGQGTQVTVSS	low polyreactivity
QVQLVESGGGLVQAGGSLRLSCAASGSTFTSYVMGWYRQAPGKERELVAAISSSGTRTYYADSVKGRFTISRDNAKNTVYLQMNSLKPEDTSVYYCAARGGAPYRIFKDDYWGQATQVTVSS	high polyreactivity
QVQLVESGGGIVQAGGSLRLSCAASGSTFVGNAMGWSRQAPGKERELVAAISRTGGSTYYADSVKGRFTISRDNEKNTVYLQMNSLIPEDSAVYYCNAYTRYSSRRGIGDSWGQGTQVTVSS	high polyreactivity
QVQLVESAGGLVQAGGSVRLSCAASGRIFGSYAMGWYRQAAGKERELVAAINWRGGSTFYADSVKGRFTISRDNAKNTVYLQMNSLKPEDTAVYYSARRGYLQSGDYWGHGTQVTVSS	low polyreactivity

Ask: Name the recorded polyreactivity (PSR sort gate) for QVQLVESGGGLVQAGGSLRLSCAASGIIFYYYAMGWYRQAPGKERELVAGISYSGGSTYADSVKGRFTISRDNAKNTVYLQMNSLKPEDTAVYYCASDYDYGGHWYDYWGQGTQVTVSS .
Reply: low polyreactivity

Ask: Quick check: polyreactivity (PSR sort gate) of QVQLVESGGGLVQAGGSLRISCDPSGSTFGQYAMGSYRQAPGKERELVAAINWNGGSTYYADSVKGRFTISRDNAKNTVYLQMNSLKPEDTAVYYCAADPVYYDFDYWGQGTQVTVSS ?
Reply: low polyreactivity

Ask: Could you tell me which polyreactivity (PSR sort gate) is on file for QVQLVESGGGLVQAGGSLRLSCAASGRIFRYYVMGWYRQAPGKETELVAAISRSGGTTYYADSVKGRFTISRDNAKNTVYLQMNSLKPEDTAVYYCAAVYGRDPGDYWGQGTQVTVSS ?
Reply: high polyreactivity

Ask: Recorded polyreactivity (PSR sort gate) of QVQLVVSGGVLVQAGGSLRLSCAASGRTFASYTMGWYIQAAGKERELVAAISRGGNTYYADSVKGRFTISRDIAKNTVYLQMNSLKPDDTAVYYCAATAVKYDRRFYYWGQGTQVTVSS , please.
Reply: high polyreactivity

Ask: Give its polyreactivity (PSR sort gate) value. Item: QVQLVESGGGLVQAGGSLRLRCAASGITFSRNAMGAYRQAPGKERELVATITSGGSTNYADSVKGRFTISRDNAKNTVYLQMNSLKPEDTAVYYCNADWNTFISGRSYDYWGQGTQVTVSS
Reply: low polyreactivity

Ask: Given QDQLVESGVGLVQAGGSLRLSCAASGRTYFSHTMGWYRQAPGKERQLVAAITRSGGTTYYADSVKGRFTISRDNAKNTVYLQMNSLKPEDTAVYYCAARTSYAFYYPRDYWGQGTQVTVSS , state its recorded polyreactivity (PSR sort gate).
Reply: high polyreactivity
